Where these numbers come from: PubChem BioAssay (NCI)

System: NCI/ADR-RES ovarian
experiment description: NCI-60 one-dose screen, 48 h (100 = growth as untreated, 0 = no growth, -100 = all killed)
conditions: 10 µM unless noted
Procedure: Growth inhibition of the NCI/ADR-RES human […] tumor cell line is measured as a screen for anti-cancer activity. Cells are grown in 96 well plates and exposed to the test compound for 48 hours. Compounds are tested at a single concentration, which is 10^-5 M for most compounds. The reported endpoint is percent growth (GI% or GIPRCNT), where numbers from 0 - 100% represent growth inhibition, and numbers from -100% - 0 represent cell death. For example, a value of 40 represents 60% growth inhibition. […]
The panel holds about 83,000 compounds, 20% with a hit somewhere; the sample as a whole holds those more often. Calls of active or inactive are those of the source. The calls were made as follows: active = growth percent below 10; inactive = the rest.
Catalogue of growth values

# smiles code, measurement label, meas value
measured = [
    ("CN1CCN(c2ccc(Nc3nc(NCCNC(=O)c4ccc(F)cc4)c4sccc4n3)cc2)CC1", "growth", "88.5% (inactive)"),
    ("CC(=C(c1ccc(OCCCN(C)C)cc1)c1ccc(OCCCN(C)C)cc1)c1ccc(Cl)cc1", "growth", "95.2% (inactive)"),
]

Q: Any idea what its growth is? The molecule is `COc1cc2oc(-c3cccc(NC(=O)[C@@H](N)C(C)C)c3)cc(=O)c2c(OC)c1OC`
Ans: 107% (inactive)

Q: Another molecule to check: `N#Cc1c(-c2ccc(Br)cc2)cc(-c2c[nH]c3ccccc23)nc1N`
Ans: 24.9% (inactive)

Q: Another molecule to check: `O=c1[nH][nH]c(-c2ccc(F)cc2)c1-c1nc2ccccc2s1`
Ans: 86.8% (inactive)

###

Tested on: ACHN renal
experiment description: NCI-60 one-dose screen, 48 h (100 = growth as untreated, 0 = no growth, -100 = all killed)
conditions: 10 µM unless noted
This is part of a sample that, as a whole, favours compounds with a hit. Of some 83,000 tested, about 20% had one in any assay.
# if measured growth < 40%: Satisfied  # else: Not satisfied

# compound, label value
records = [
    ("CC1(C)CC[C@]2(C(=O)NCCCCCCN(CCCN)CCCN)CC[C@]3(C)C(=CC[C@@H]4[C@@]5(C)CC[C@H](O)C(C)(C)[C@@H]5CC[C@]43C)[C@@H]2C1", "Not satisfied"),
    ("O=C(CCCCCCN1CC(=O)N2[C@@H](c3cccs3)c3[nH]c4ccccc4c3C[C@H]2C1=O)NO", "Not satisfied"),
    ("C#Cc1cc(C(=O)Nc2ccc(CNCCN3CCOCC3)c(C(F)(F)F)c2)ccc1C", "Not satisfied"),
    ("Cc1[nH]c(C(=O)Nc2ccc(C(N)=O)cc2N2CCOC(C)C2)c(Cl)c1Cl (centres undefined)", "Not satisfied"),
    ("CN1CCN(Cc2ccc(NC(=O)c3cncc(C#Cc4cnc5ccc(NCCO)nn45)c3)cc2C(F)(F)F)CC1", "Satisfied"),
]

Q: Does this compound meet the criterion growth < 40%? `Cc1ccsc1[C@H]1c2[nH]c3ccccc3c2C[C@H]2C(=O)N(CCCCCCC(=O)NO)CC(=O)N12`
Ans: Not satisfied

Q: Another compound to check: `NS(=O)(=O)c1ccc(Nc2nc(N/N=C/c3ccc4c(c3)OCO4)nc(Nc3ccccc3)n2)cc1`
Ans: Not satisfied

Q: Another compound to check: `CC(C)(C)OC(=O)NCc1ccc(CNc2c([N+](=O)[O-])cnc3ccccc23)cc1`
Ans: Not satisfied

Q: Another compound to check: `CCN(CC)c1ccc(/C=N/NC(=O)c2ccc(NS(C)(=O)=O)cc2)c(O)c1`
Ans: Satisfied

Q: Another compound to check: `CN1CCC[C@]2(C)[C@H]3CC[C@@H]4[C@@H]5[C@H]6OC[C@@]5(CCC6(C)C)CC[C@@]4(C)[C@]3(C)CC[C@H]2C1(C)C`
Ans: Not satisfied

Q: Another compound to check: `C#CCOc1cccc(/C(N)=N/C(N)=N/c2nc3ccccc3s2)c1`
Ans: Not satisfied

Q: Another compound to check: CCOP(=O)(OCC)OC[C@]12CCC(C)(C)CC1C1=CC[C@@H]3[C@@]4(C)CCCNC(C)(C)[C@@H]4CC[C@@]3(C)[C@]1(C)CC2 (some centres undefined)
Ans: Not satisfied

Q: Another compound to check: `CC(=O)N(O)CCCCCNC(=O)CCC(=O)N(O)CCCCCNC(=O)CCC(=O)N(O)CCCCCN(CCCCCCCCCC[P+](c1ccccc1)(c1ccccc1)c1ccccc1)CCCCCCCCCC[P+](c1ccccc1)(c1ccccc1)c1ccccc1`
Ans: Satisfied

Q: Another compound to check: `N#Cc1cnc2ccc(-c3cnc4n[nH]nc4c3)cc2c1N1CCc2cc(F)c(Cl)cc21`
Ans: Satisfied

Q: Another compound to check: `O=C1Nc2cc(Cl)ccc2/C1=C\c1ccc(OCc2ccccc2)cc1`
Ans: Not satisfied

Q: Another compound to check: CC(Nc1c(C#N)cnc2ccc(-c3cncc(O)c3)cc12)c1ccccc1 (centres undefined)
Ans: Satisfied

Q: Another compound to check: `CCOC(=O)c1cccc(NC2=C(Cl)C(=O)C(C)=C(C)C2=O)c1`
Ans: Not satisfied

Q: Another compound to check: `O=C(/C=C/c1cccc(F)c1)c1cccc(OCCCOc2cccc(C(=O)/C=C/c3cccc(F)c3)c2)c1`
Ans: Not satisfied

Q: Another compound to check: `CN1CCN(CC#CCn2c3c(c4ccccc42)C[C@]2(C)[C@H]4CC=C5[C@@H]6CC(C)(C)CC[C@]6(C(=O)N6CCOCC6)CC[C@@]5(C)[C@]4(C)CC[C@H]2C3(C)C)CC1`
Ans: Not satisfied

Q: Another compound to check: `Cc1ccc(-c2cc3nc(C(Cl)Cl)nc(-c4ccc(S(=O)(=O)N(C)C)cc4)n3n2)cc1`
Ans: Not satisfied

Q: Another compound to check: `Fc1ccc(-c2cn3c(-c4c[nH]c5ccc(Br)cc45)csc3n2)cc1`
Ans: Not satisfied

Q: Another compound to check: `COc1cc(/C=N\NC(=O)c2ccc3nc(-c4ccc(Br)cc4)[nH]c3c2)cc(OC)c1OC`
Ans: Not satisfied

###

System: ACHN renal
experiment description: NCI-60 one-dose screen, 48 h
conditions: 10 µM unless noted
This is part of a sample that, as a whole, favours compounds with a hit. Of some 83,000 tested, about 20% had one in any assay. Activity calls are given as the source filed them. The calls were made as follows: active = growth percent below 10; inactive = the rest.
Give your call using only these classes: t = active, f = inactive

Before answering, review these 3 worked examples.
# compound, label value
records = [
    ("CSc1ccc(/C(=N/N=C(N)N)c2ccc(F)cc2)cc1", "f"),
    ("Fc1ccc2nc(-c3cnn4cccnc34)sc2c1", "f"),
    ("COc1ccc(N2CCN(C3=C(Cl)C(=O)c4ncccc4C3=O)CC2)cc1", "t"),
]

Q: Test call for this compound, please: `Cc1ccc(-c2nc(SCC(=O)c3ccccc3)nc(Nc3ccc(S(N)(=O)=O)cc3)c2C#N)cc1`
Ans: f

Q: Another compound to check: `O=S(=O)(NCCCNc1nccc(-c2[nH]c(-c3ccccc3)nc2-c2ccc(F)c(O)c2)n1)c1cccc2ccccc12`
Ans: f

Q: Another compound to check: `COc1ccc2c(c1)c(/C=N/Nc1ccnc3cc(Cl)ccc13)cn2C`
Ans: t

Q: Another compound to check: `N#Cc1c(-c2cccs2)cc(-c2cnccn2)nc1SCC(=O)N/N=C/c1ccc(Cl)cc1`
Ans: f

Q: Another compound to check: `Cc1cc2nc(C(Cl)Cl)nc(-c3ccc(S(=O)(=O)N(C)C)cc3)n2n1`
Ans: f

Q: Another compound to check: `CN(C)S(=O)(=O)c1ccc(-c2nc(C(Cl)Cl)nc3cc(-c4ccccc4)nn23)cc1`
Ans: f

Q: Another compound to check: `O=C(CCCCCCNC(=O)C(O)(O)C(F)(F)F)Nc1ccc(-c2ccccc2)cc1`
Ans: t

Q: Another compound to check: Cc1[nH]c(C(=O)Nc2ccccc2OCc2cccc(C(=O)NC3CCNC3)c2)c(Cl)c1Cl (stereo not drawn)
Ans: f

Q: Another compound to check: `COc1cc(-c2nc(-c3ccccc3)[nH]c2-c2ccnc(NCCCNS(=O)(=O)c3ccc(C)cc3)n2)ccc1F`
Ans: f

Q: Another compound to check: `CN1CCN(c2ccc(Nc3nc(NCCCNS(=O)(=O)c4ccccc4)c4sccc4n3)cc2)CC1`
Ans: f

Q: Another compound to check: `C#CCOc1ccc(-c2csc(NC(=O)C=C)n2)cc1NS(=O)(=O)c1cccc2c(N(C)C)cccc12`
Ans: t

Q: Another compound to check: `C#CCn1cc(/C=N/Nc2nc(-c3ccc(Br)cc3)cs2)c2ccccc21`
Ans: f

Q: Another compound to check: `CN1CCN(Cc2ccc(NC(=O)c3cncc(C#Cc4cnc5ccc(O[C@@H]6CCOC6)nn45)c3)cc2C(F)(F)F)CC1`
Ans: t

Q: Another compound to check: CC(Nc1c(C#N)cnc2ccc(-c3cncc(-c4n[nH]c(=O)o4)c3)cc12)c1ccccc1 (stereo not drawn)
Ans: t

Q: Another compound to check: COc1ccc(C2CC(c3cccc(OCCCCOc4cccc(C5=NOC(c6ccc(OC)cc6)C5)c4)c3)=NO2)cc1 (stereo not drawn)
Ans: f

Q: Another compound to check: `O=c1c2cc(-c3ccc(F)cc3F)ccc2n(Nc2ccccc2)c(=O)n1-c1cccc(C(F)(F)F)c1`
Ans: t

Q: Another compound to check: `O=C(CCCCCCNC(=O)C(O)(O)C(F)(F)F)Nc1ncc(-c2ccc(Br)cc2)s1`
Ans: t

Q: Another compound to check: `COc1ccc(OC)c(NC(=O)CCCCCCNC(=O)C(O)(O)C(F)(F)F)c1`
Ans: f

Q: Another compound to check: `Cc1cc(C)cc(NC2=C(Cl)C(=O)c3nc(C)ccc3C2=O)c1`
Ans: t

Q: Another compound to check: `Clc1cccc(/C=N/Nc2nc(N/N=C/c3cccc(Cl)c3)nc(N3CCOCC3)n2)c1`
Ans: f
